tested on: E. coli ATCC 25922; assay: MIC assay, CLSI broth microdilution, E. coli ATCC 25922 (AECO001); type: cell-based; conditions: Table 3; E. coli ATCC25922
MEASURE NAME: MIC AECO001 (µg/mL)
Quick reminder: number only, in µg/mL, skip the unit.

// below: answered compounds
{"COMPOUND": "CN[C@@H]1[C@@H](O)[C@@H](O[C@@H]2[C@@H](O)[C@H](O[C@H]3OC(CNCCCN)=CC[C@H]3N)[C@@H](N)C[C@H]2NC(=O)[C@@H](O)CCN)OC[C@]1(C)O", "MIC AECO001 (µg/mL)": 1}
{"COMPOUND": "CN[C@@H]1C(O)[C@@H](O[C@@H]2[C@@H](O)[C@H](OC3OC(CN)=CC[C@H]3N)[C@@H](N)C[C@H]2NC(=O)C2(O)CNC2)OC[C@]1(C)O (stereo partly drawn) [Mono-substituted Compound 7, reference compound]", "MIC AECO001 (µg/mL)": 1}

Please look at the following compound next.
compound CN[C@@H]1[C@@H](O)[C@@H](O[C@@H]2C(O)[C@H](O[C@H]3OC(CNCC4CCNCC4)=CC[C@H]3N)[C@@H](N)C[C@H]2N)OC[C@]1(C)O (stereo partly drawn) [Mono-substituted Compound 3, reference compound] , MIC AECO001 observed: 0.5
